Where do the numbers come from? From paper PMC6035192.

systemTested: T1, I-CreI_3115 chain 1;I-CreI_3115 chain 2 (;, UniProt P05725;P05725 1-163;1-163, Y33G;Q38K;Q44K;R68Y;R70S;D75N;I77Y;I132V|G19S;Y33V;Q38R;S40Q;Q44D;R68A;R70S;D75K …)
T1 sequence 1: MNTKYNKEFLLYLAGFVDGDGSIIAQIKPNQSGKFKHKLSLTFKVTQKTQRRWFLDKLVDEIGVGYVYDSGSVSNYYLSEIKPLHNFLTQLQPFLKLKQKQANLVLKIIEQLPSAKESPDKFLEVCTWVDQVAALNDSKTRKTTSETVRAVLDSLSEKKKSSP
T1 sequence 2: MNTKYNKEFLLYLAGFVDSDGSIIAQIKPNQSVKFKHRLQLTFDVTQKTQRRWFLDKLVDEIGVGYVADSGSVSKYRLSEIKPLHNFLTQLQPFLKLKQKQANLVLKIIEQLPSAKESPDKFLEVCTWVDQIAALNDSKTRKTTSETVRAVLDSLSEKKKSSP
protocolDescription: MST; 2 mM CaCl2; labelled DNA; MST at 25 C: 50 mM Tris pH 8.0 (I-CreI_3115; 2 or 10 mM CaCl2) or 50 mM Hepes pH 7.5 (I-CreI_D75N; 10 mM CaCl2), 300 mM NaCl, 0.5 mM TCEP, 0.05% Tween-20
particulars: protein: recombinant;recombinant; tags: ;; copies: 1;1; label: Cy5 on coding strand (5'); blunt
assayEndpoint: Kd (nM)
# unit: nM | format: bare number

[in] // fetch Kd given entry I-CreI_3115_target (Cy5) (dsDNA) DNA 1: TCAGACTTCTCCACAGGAGTCAGA DNA 2: TCTGACTCCTGTGGAGAAGTCTGA
[out] 90
